Values were extracted from ChEMBL document CHEMBL1145304.

Biological target: UniProt P31645
pIC50: −log10 of the molar value.
Outcome: 1 for pIC50 of at least 7; -1 for anything lower.

compound	measurement_target	group
Clc1ccccc1CC(c1cccnc1)N1CCNCC1 (stereo not drawn)	UniProt P31645	1
c1ccc(C(Cc2cccc3ccccc23)N2CCNCC2)cc1 (stereo not drawn)	UniProt P31645	1
c1ccc(CCC(Cc2ccccc2)N2CCNCC2)cc1 (stereo not drawn)	UniProt P31645	1

// inclusive: pIC50 at least 7? input: c1ccc(CCC(c2ccccc2)N2CCNCC2)cc1 (stereo not drawn)
1

// inclusive: pIC50 at least 7? input: CCOc1ccccc1CC(c1ccccc1)N1CCCNCC1 (stereo not drawn)
-1

// inclusive: pIC50 at least 7? input: CCOc1ccccc1CC(c1cncs1)N1CCNCC1 (stereo not drawn)
1

// inclusive: pIC50 at least 7? input: CCOc1ccccc1CC(c1cccnc1)N1CCNCC1 (stereo not drawn)
1

// inclusive: pIC50 at least 7? input: c1ccc(C(Cc2ccncc2)N2CCNCC2)cc1 (stereo not drawn)
1

// inclusive: pIC50 at least 7? input: c1ccc(C(Cc2ccccn2)N2CCNCC2)cc1 (stereo not drawn)
-1

---

Below are IC50 values recorded for Sodium-dependent noradrenaline transporter (Homo sapiens).
Report the value in nM with no unit label.

Study these solved cases before continuing.
compound	assay_endpoint	value
CCOc1ccccc1CC(c1cncs1)N1CCNCC1 (stereo not drawn)	IC50	21
Clc1ccccc1CC(c1ccccc1)N1CCCNCC1 (stereo not drawn)	IC50	76
CCOc1ccccc1CC(c1nccs1)N1CCNCC1 (stereo not drawn)	IC50	340

Form field: reported IC50 of CCOc1ccccc1CC(c1ccccc1)N1CCCNCC1 (stereo not drawn)
8.8

Form field: reported IC50 of Clc1ccccc1CC(c1cccnc1)N1CCNCC1 (stereo not drawn)
75

Form field: reported IC50 of Clc1ccccc1CC(c1cncs1)N1CCNCC1 (stereo not drawn)
120

Form field: reported IC50 of c1ccc(CCC(Cc2ccccc2)N2CCNCC2)cc1 (stereo not drawn)
48

Form field: reported IC50 of CCOc1ccccc1CC(c1cccnc1)N1CCNCC1 (stereo not drawn)
15

---

Biological target: Sodium-dependent serotonin transporter (Homo sapiens)
Sequence (P31645 whole entry): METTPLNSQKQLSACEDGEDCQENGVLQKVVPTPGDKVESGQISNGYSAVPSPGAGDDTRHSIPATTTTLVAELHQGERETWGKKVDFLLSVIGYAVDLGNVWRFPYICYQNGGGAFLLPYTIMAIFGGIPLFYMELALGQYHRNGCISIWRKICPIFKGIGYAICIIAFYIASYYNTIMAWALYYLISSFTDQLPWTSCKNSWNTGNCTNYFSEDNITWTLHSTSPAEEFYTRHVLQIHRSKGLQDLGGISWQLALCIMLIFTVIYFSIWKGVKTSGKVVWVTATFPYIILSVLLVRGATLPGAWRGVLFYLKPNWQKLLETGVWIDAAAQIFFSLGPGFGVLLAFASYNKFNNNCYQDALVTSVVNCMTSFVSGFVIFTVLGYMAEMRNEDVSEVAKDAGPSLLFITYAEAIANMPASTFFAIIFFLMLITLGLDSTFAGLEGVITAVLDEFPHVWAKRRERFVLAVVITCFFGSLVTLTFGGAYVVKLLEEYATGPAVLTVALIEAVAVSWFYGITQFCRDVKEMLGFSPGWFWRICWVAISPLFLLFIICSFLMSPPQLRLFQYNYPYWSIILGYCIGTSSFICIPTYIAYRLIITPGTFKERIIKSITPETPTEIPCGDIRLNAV
assay_endpoint: IC50 (nM)
Report the value in nM with no unit label.

Study these solved cases before continuing.
compound	value
c1ccc(C(Cc2ccc3ccccc3c2)N2CCNCC2)cc1 (centres undefined)	17
CCOc1ccccc1CC(c1nccs1)N1CCNCC1 (centres undefined)	39
Clc1ccccc1CC(c1ccccc1)N1CCCNCC1 (centres undefined)	42

Proceeding to the next compound to report its IC50.
Param readout = IC50; param system = Sodium-dependent serotonin transporter (Homo sapiens); param query = Clc1ccccc1CC(c1cncs1)N1CCNCC1 (centres undefined) ; response: value
12
